Overview of recorded Autosampler (24h, 4°C) Accuracy [%] for various molecules
# Assay name: Autosampler stability of ready for injection samples
# Assay type: physicochemical, human
# Condition details: validation standard MOV
Express your answer in %, writing the number without its unit.

CN(C)C(=O)c1cc2cnc(Nc3ccc(N4CCNCC4)cn3)nc2n1C1CCCC1 [Ribociclib]; 104.1
CS(=O)(=O)c1ccc(C(=O)Nc2ccc(Cl)c(-c3ccccn3)c2)c(Cl)c1 [Vismodegib]; 108.4
COC(=O)N[C@@H](C)CNc1nccc(-c2cn(C(C)C)nc2-c2cc(Cl)cc(NS(C)(=O)=O)c2F)n1 [Encorafenib]; 112.5

Tell me its Autosampler (24h, 4°C) Accuracy [%] given CC(=O)Nc1cccc(-n2c(=O)n(C3CC3)c(=O)c3c(Nc4ccc(I)cc4F)n(C)c(=O)c(C)c32)c1 [Trametinib] as the entry.
103.1

Provide one value: measured Autosampler (24h, 4°C) Accuracy [%] of C#Cc1cccc(Nc2ncnc3cc(OCCOC)c(OCCOC)cc23)c1 [Erlotinib]
103.3

Consider the molecule Cn1cnc2c(F)c(Nc3ccc(Br)cc3F)c(C(=O)NOCCO)cc21 [Binimetinib] . State its measured Autosampler (24h, 4°C) Accuracy [%].
105.0

Read off the recorded Autosampler (24h, 4°C) Accuracy [%] for COc1cc2nccc(Oc3ccc(NC(=O)Nc4cc(C)on4)c(Cl)c3)c2cc1OC [Tivozanib]
104.6

Input CNC(=O)c1ccccc1Sc1ccc2c(/C=C/c3ccccn3)n[nH]c2c1 [Axitinib] , output reported Autosampler (24h, 4°C) Accuracy [%].
102.7

====

# Assay name: Long-term stability in spiked pooled human plasma
# Condition details: validation standard 2xLLOV
Reported Long-term stability, 3 month, -20°C Accuracy [%] values for the following molecules.
Answer with a number only, understood to be in %.

O=C(c1ccc(F)c(F)c1Nc1ccc(I)cc1F)N1CC(O)([C@@H]2CCCCN2)C1; 99.0
Cc1ccc(Nc2nccc(N(C)c3ccc4c(C)n(C)nc4c3)n2)cc1S(N)(=O)=O; 106.9
CNC(=O)c1cc(Oc2ccc(NC(=O)Nc3ccc(Cl)c(C(F)(F)F)c3)cc2)ccn1; 94.5
Cc1nc(Nc2ncc(C(=O)Nc3c(C)cccc3Cl)s2)cc(N2CCN(CCO)CC2)n1; 102.0
COc1cc2ncnc(Nc3ccc(F)c(Cl)c3)c2cc1OCCCN1CCOCC1; 103.9
CCc1cc2c(cc1N1CCC(N3CCOCC3)CC1)C(C)(C)c1[nH]c3cc(C#N)ccc3c1C2=O; 82.7
CN(C)C/C=C/C(=O)Nc1cc2c(Nc3ccc(F)c(Cl)c3)ncnc2cc1O[C@H]1CCOC1; 76.9

Moving on to another molecule below.
Name the recorded Long-term stability, 3 month, -20°C Accuracy [%] of the item CNC(=O)c1cc(Oc2ccc(NC(=O)Nc3ccc(Cl)c(C(F)(F)F)c3)c(F)c2)ccn1 in your answer.
90.7

====

As shown below, each of these compounds has a reported Long-term stability, 2 month, -80°C Accuracy [%] value.
# Assay name: Long-term stability in spiked pooled human plasma
# Condition details: validation standard 2xLLOV
The reply should be a number in %, with the unit left off.

Known results for compounds:
CNC(=O)c1ccc(N2C(=S)N(c3ccc(C#N)c(C(F)(F)F)c3)C(=O)C2(C)C)cc1F [Enzalutamide]; 92.9
CC(=O)Nc1cccc(-n2c(=O)n(C3CC3)c(=O)c3c(Nc4ccc(I)cc4F)n(C)c(=O)c(C)c32)c1 [Trametinib]; 104.2
COC(=O)N[C@@H](C)CNc1nccc(-c2cn(C(C)C)nc2-c2cc(Cl)cc(NS(C)(=O)=O)c2F)n1 [Encorafenib]; 104.1
O=C(c1ccc(F)c(F)c1Nc1ccc(I)cc1F)N1CC(O)([C@@H]2CCCCN2)C1 [Cobimetinib]; 103.4
CCCS(=O)(=O)Nc1ccc(F)c(C(=O)c2c[nH]c3ncc(-c4ccc(Cl)cc4)cc23)c1F [Vemurafenib]; 108.1

// Input: COc1cc2nccc(Oc3ccc(NC(=O)Nc4cc(C)on4)c(Cl)c3)c2cc1OC [Tivozanib] . Output its Long-term stability, 2 month, -80°C Accuracy [%] only.
101.4

Report Long-term stability, 2 month, -80°C Accuracy [%] for O=c1[nH]c(=O)n([C@H]2C[C@H](O)[C@@H](CO)O2)cc1C(F)(F)F [Trifluridine]
104.3

Determine its reported Long-term stability, 2 month, -80°C Accuracy [%]: COc1cc(N2CCC(N3CCN(C)CC3)CC2)ccc1Nc1ncc(Cl)c(Nc2ccccc2P(C)(C)=O)n1 [Brigatinib]
110.2

Give reported Long-term stability, 2 month, -80°C Accuracy [%] value for CC1(C)CCC(CN2CCN(c3ccc(C(=O)NS(=O)(=O)c4ccc(NCC5CCOCC5)c([N+](=O)[O-])c4)c(Oc4cnc5[nH]ccc5c4)c3)CC2)=C(c2ccc(Cl)cc2)C1 [Venetoclax]
111.9

For the compound CNC(=O)c1ccc(N2C(=S)N(c3cnc(C#N)c(C(F)(F)F)c3)C(=O)C23CCC3)cc1F [Apalutamide] , give its measured Long-term stability, 2 month, -80°C Accuracy [%] value.
100.0

Name the recorded Long-term stability, 2 month, -80°C Accuracy [%] of the item COc1cc2ncnc(Nc3ccc(F)c(Cl)c3)c2cc1OCCCN1CCOCC1 [Gefitinib] in your answer.
108.5

Report Long-term stability, 2 month, -80°C Accuracy [%], nothing else, for this compound: NC(=O)c1cccc2cn(-c3ccc([C@@H]4CCCNC4)cc3)nc12 [Niraparib]
106.0

Specify reported Long-term stability, 2 month, -80°C Accuracy [%] for the compound shown: COc1cc2nccc(Oc3ccc(NC(=O)NC4CC4)c(Cl)c3)c2cc1C(N)=O [Lenvatinib]
100.9

====

# Assay name: Short-term stability in spiked pooled human plasma (bench-top, 4 °C, 56 °C)
# Condition details: validation standard LLOV
Rule: Short-time stability (24h, RT, with daylight) Accuracy [%] of 90% or more gives YES; anything lower gives NO.

Record Cc1ccc(Nc2nccc(N(C)c3ccc4c(C)n(C)nc4c3)n2)cc1S(N)(=O)=O ; criterion: Short-time stability (24h, RT, with daylight) Accuracy [%] no lower than 90%. Met?
YES

Has O=C(c1cc(Cc2n[nH]c(=O)c3ccccc23)ccc1F)N1CCN(C(=O)C2CC2)CC1 a recorded Short-time stability (24h, RT, with daylight) Accuracy [%] greater than or equal to 90%?
YES

Item Cc1[nH]c2ccccc2c1CCNCc1ccc(/C=C/C(=O)NO)cc1 with Short-time stability (24h, RT, with daylight) Accuracy [%] of 90% or above?
NO

Is it the case that Nc1cccc2c1CN(C1CCC(=O)NC1=O)C2=O (centres unmarked) [Lenalidomide] has Short-time stability (24h, RT, with daylight) Accuracy [%] reaching or exceeding 90%?
NO

Is the recorded value of Short-time stability (24h, RT, with daylight) Accuracy [%] equal to or greater than 90% for this compound? O=c1[nH]c(=O)n([C@H]2C[C@H](O)[C@@H](CO)O2)cc1C(F)(F)F
NO

Reported Short-time stability (24h, RT, with daylight) Accuracy [%] at or above 90%? CS(=O)(=O)c1ccc(C(=O)Nc2ccc(Cl)c(-c3ccccn3)c2)c(Cl)c1
YES

Hello, I need to know if CCOc1cc2ncc(C#N)c(Nc3ccc(OCc4ccccn4)c(Cl)c3)c2cc1NC(=O)/C=C/CN(C)C has measured Short-time stability (24h, RT, with daylight) Accuracy [%] not below 90%. Thanks!
NO

====

# Assay name: Autosampler stability of ready for injection samples
# Assay type: physicochemical, human
# Condition details: validation standard MOV
Catalogue of Autosampler (24h, 4°C) Accuracy [%] readings, one per entry.
Report the figure in % without appending any unit label.

Here's what some known entries look like.
O=C(c1ccc(F)c(F)c1Nc1ccc(I)cc1F)N1CC(O)([C@@H]2CCCCN2)C1 [Cobimetinib]; 105.2
CCOc1cc2ncc(C#N)c(Nc3ccc(OCc4ccccn4)c(Cl)c3)c2cc1NC(=O)/C=C/CN(C)C [Neratinib]; 103.1
CCCS(=O)(=O)Nc1ccc(F)c(C(=O)c2c[nH]c3ncc(-c4ccc(Cl)cc4)cc23)c1F [Vemurafenib]; 99.5
CC[C@H](Nc1ncnc2[nH]cnc12)c1nc2cccc(F)c2c(=O)n1-c1ccccc1 [Idelalisib]; 102.6
CC(=O)c1c(C)c2cnc(Nc3ccc(N4CCNCC4)cn3)nc2n(C2CCCC2)c1=O [Palbociclib]; 101.0

Using the record for N#CC[C@H](C1CCCC1)n1cc(-c2ncnc3[nH]ccc23)cn1 [Ruxolitinib] , state its measured Autosampler (24h, 4°C) Accuracy [%].
102.4

Give the reported Autosampler (24h, 4°C) Accuracy [%] for this molecule. CO[C@@H]1[C@H](N(C)C(=O)c2ccccc2)C[C@H]2O[C@]1(C)n1c3ccccc3c3c4c(c5c6ccccc6n2c5c31)C(=O)NC4 [Midostaurin]
101.4

====

# Assay name: Long-term stability in spiked pooled human plasma
# Condition details: validation standard ULOV
Measured property: Long-term stability, 2 month, -20°C Accuracy [%] (%)
Respond numerically; units are % and should not be typed.

CCOc1cc2ncc(C#N)c(Nc3ccc(OCc4ccccn4)c(Cl)c3)c2cc1NC(=O)/C=C/CN(C)C [Neratinib]; 82.8
CO[C@@H]1[C@H](N(C)C(=O)c2ccccc2)C[C@H]2O[C@]1(C)n1c3ccccc3c3c4c(c5c6ccccc6n2c5c31)C(=O)NC4 [Midostaurin]; 118.6
O=C(c1ccc(F)c(F)c1Nc1ccc(I)cc1F)N1CC(O)([C@@H]2CCCCN2)C1 [Cobimetinib]; 104.5
CCN1CCN(Cc2ccc(Nc3ncc(F)c(-c4cc(F)c5nc(C)n(C(C)C)c5c4)n3)nc2)CC1 [Abemaciclib]; 106.0
Cc1ccc(NC(=O)c2ccc(CN3CCN(C)CC3)cc2)cc1Nc1nccc(-c2cccnc2)n1 [Imatinib]; 91.0

Tell me Long-term stability, 2 month, -20°C Accuracy [%] reported for COc1cc2nccc(Oc3ccc(NC(=O)NC4CC4)c(Cl)c3)c2cc1C(N)=O [Lenvatinib]
101.7

Return value of Long-term stability, 2 month, -20°C Accuracy [%] for input Cc1cn(-c2cc(NC(=O)c3ccc(C)c(Nc4nccc(-c5cccnc5)n4)c3)cc(C(F)(F)F)c2)cn1 [Nilotinib] , no commentary.
97.5

Using the record for CCc1cc2c(cc1N1CCC(N3CCOCC3)CC1)C(C)(C)c1[nH]c3cc(C#N)ccc3c1C2=O [Alectinib] , state its measured Long-term stability, 2 month, -20°C Accuracy [%].
88.3

Retrieve Long-term stability, 2 month, -20°C Accuracy [%] measured for Nc1cccc2c1C(=O)N(C1CCC(=O)NC1=O)C2=O (stereo not shown) [Pomalidomide] and print it.
94.1

Give the reported Long-term stability, 2 month, -20°C Accuracy [%] for this compound. Cc1[nH]c2ccccc2c1CCNCc1ccc(/C=C/C(=O)NO)cc1 [Panobinostat]
98.1

Specify measured Long-term stability, 2 month, -20°C Accuracy [%] for Nc1cccc2c1CN(C1CCC(=O)NC1=O)C2=O (stereo not shown) [Lenalidomide] .
95.8
